- assayed.target: huCTLA4 (Homo sapiens, UniProt P16410)
- Sequence (P16410 36-223): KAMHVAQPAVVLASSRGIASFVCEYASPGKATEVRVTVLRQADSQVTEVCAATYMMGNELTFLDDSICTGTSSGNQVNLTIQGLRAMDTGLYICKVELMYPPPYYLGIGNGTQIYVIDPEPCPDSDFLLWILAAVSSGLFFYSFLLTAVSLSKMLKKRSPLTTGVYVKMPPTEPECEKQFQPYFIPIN
- method.notes: Flow binding to CHO cells stably expressing CTLA4
- Design: huCTLA4 and huPD-L1, full-length mammalian surface expression constructs were generated; expressed in transfected cells; host or cells: CHO cells, lentiviral transduction, sorted to >98% purity
- condition.notes: Table E20; CHO cells stably expressing CTLA4; 33.3 nM
observable: CTLA4 MFI at 33.3 nM
Answer using only a numeral; do not append any unit.

Past entries and their recorded results:
molecule	observed
H18Y/A26E/V68M/A71G (protein) VIHVTKEVKEVATLSCGYNVSVEELEQTRIYWQKEKKMVLTMMSGDMNIWPEYKNRTIFDITNNLSIMILGLRPSDEGTYECVVLKYEKDAFKREHLAEVTLSVKAD	11323
H18Y/A26E/M47L/A71G (protein) VIHVTKEVKEVATLSCGYNVSVEELEQTRIYWQKEKKMVLTMMSGDLNIWPEYKNRTIFDITNNLSIVILGLRPSDEGTYECVVLKYEKDAFKREHLAEVTLSVKAD	22108

Inquiry: So what does the record say about CTLA4 MFI at 33.3 nM for E35D/M47L/V68M/D90G (protein) VIHVTKEVKEVATLSCGHNVSVEELAQTRIYWQKDKKMVLTMMSGDLNIWPEYKNRTIFDITNNLSIMILALRPSDEGTYECVVLKYEKGAFKREHLAEVTLSVKAD ?
Reply text: 27607

From: patent US20220177587A1
